Each entry below lists one item and its recorded binding signal value.
STUDY_SYSTEM: RELB subunit;p52 subunit (Homo sapiens;Homo sapiens, UniProt Q01201;Q00653 120-401;4-332)
Sequence 1: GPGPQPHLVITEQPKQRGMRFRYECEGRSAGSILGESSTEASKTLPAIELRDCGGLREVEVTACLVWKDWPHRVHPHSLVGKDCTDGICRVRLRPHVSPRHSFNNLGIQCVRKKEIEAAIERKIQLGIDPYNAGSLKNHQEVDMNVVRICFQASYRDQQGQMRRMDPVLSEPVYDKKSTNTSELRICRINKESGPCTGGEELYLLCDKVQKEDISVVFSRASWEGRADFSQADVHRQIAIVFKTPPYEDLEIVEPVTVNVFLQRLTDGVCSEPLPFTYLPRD
Sequence 2: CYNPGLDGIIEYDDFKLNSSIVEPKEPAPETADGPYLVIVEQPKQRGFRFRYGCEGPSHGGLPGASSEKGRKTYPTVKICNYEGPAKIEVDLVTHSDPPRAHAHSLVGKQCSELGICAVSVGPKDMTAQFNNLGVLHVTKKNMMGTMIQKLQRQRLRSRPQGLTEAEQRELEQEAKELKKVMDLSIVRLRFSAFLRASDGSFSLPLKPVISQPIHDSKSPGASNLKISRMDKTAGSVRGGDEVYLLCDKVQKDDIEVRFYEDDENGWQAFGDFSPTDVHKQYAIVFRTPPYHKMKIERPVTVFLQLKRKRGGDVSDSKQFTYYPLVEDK
METHOD_NOTES: protein binding microarray; high values mean tight binding
CONDITION_INFO: dsDNA, one strand shown
ENDPOINT: binding signal (z-score)

# SEQUENCE, ENDPOINT, TEST_VALUE
data = [
    ("AAAAATCCCCT", "binding signal", 2.88),
    ("CGAAGTTCCCT", "binding signal", 0.672),
    ("GGGGTCTCCCT", "binding signal", 1.05),
    ("AGAATGTTCCT", "binding signal", -0.948),
    ("CGGAGCGCCCT", "binding signal", -0.954),
    ("GGGTACTCCCC", "binding signal", 1.96),
    ("CGAAGCTTCCC", "binding signal", -0.463),
    ("AGATAAGTCCC", "binding signal", 0.954),
    ("AGGTAGCTCCT", "binding signal", -0.975),
    ("AAATGCTTCCC", "binding signal", -0.535),
    ("GGAAGCTTCCT", "binding signal", -0.836),
    ("GAATTCACCCC", "binding signal", 0.753),
    ("GAAGAGCCCCT", "binding signal", 0.833),
    ("CGAGACGTCCT", "binding signal", -0.949),
    ("GAAAACGTCCT", "binding signal", -0.687),
    ("CAGAGCACCCT", "binding signal", -0.444),
    ("CGGTTTTTCCC", "binding signal", 1.78),
    ("AGAGACCTCCC", "binding signal", -0.671),
    ("GGGTAACCCCT", "binding signal", 1.45),
    ("AGGAAGCCCCC", "binding signal", 1.07),
]

---

STUDY_SYSTEM: C-Rel subunit;p50 subunit (Homo sapiens;Homo sapiens, UniProt Q04864;P19838 1-285;7-356)
Sequence (Q04864 1-285, chain 1 of 2): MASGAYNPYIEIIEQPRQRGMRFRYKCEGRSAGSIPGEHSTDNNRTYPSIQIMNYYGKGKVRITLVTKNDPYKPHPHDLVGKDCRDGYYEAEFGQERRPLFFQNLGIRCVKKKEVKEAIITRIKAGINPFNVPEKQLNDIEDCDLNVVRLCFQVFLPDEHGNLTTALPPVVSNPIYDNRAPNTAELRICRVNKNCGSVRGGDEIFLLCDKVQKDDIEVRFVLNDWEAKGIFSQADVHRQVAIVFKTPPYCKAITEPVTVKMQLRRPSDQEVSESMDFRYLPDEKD
Sequence (P19838 7-356, chain 2 of 2): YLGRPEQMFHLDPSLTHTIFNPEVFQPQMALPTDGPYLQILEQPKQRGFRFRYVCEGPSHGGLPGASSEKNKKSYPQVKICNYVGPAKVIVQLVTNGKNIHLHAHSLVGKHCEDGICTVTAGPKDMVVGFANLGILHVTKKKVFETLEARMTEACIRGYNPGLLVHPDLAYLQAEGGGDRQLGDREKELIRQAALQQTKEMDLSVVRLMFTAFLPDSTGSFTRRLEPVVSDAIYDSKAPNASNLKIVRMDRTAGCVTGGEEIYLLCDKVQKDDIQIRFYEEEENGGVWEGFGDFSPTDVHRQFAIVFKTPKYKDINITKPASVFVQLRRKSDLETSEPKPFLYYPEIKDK
METHOD_NOTES: protein binding microarray; high values mean tight binding
CONDITION_INFO: dsDNA, one strand shown
Doc: threshold -0.4 z-score (exclusive). Items with binding signal beneath it return Fulfilled; others return Not fulfilled.

# SEQUENCE, LABEL_VALUE
rows = [
    ("GAGATATCCCC", "Not fulfilled"),
    ("GAAGAGCCCCT", "Not fulfilled"),
    ("AGAGTATTCCC", "Not fulfilled"),
    ("CAAGAGGTCCC", "Not fulfilled"),
    ("GAGTGTGCCCT", "Fulfilled"),
    ("CGATACCTCCC", "Fulfilled"),
    ("AGGTAATTCCT", "Not fulfilled"),
    ("AGAGGGACCCT", "Fulfilled"),
    ("CGGTGTACCCT", "Not fulfilled"),
    ("CAGGGATCCCC", "Not fulfilled"),
    ("CGATTGACCCC", "Fulfilled"),
    ("GAGTGCGCCCC", "Not fulfilled"),
    ("GAGTGCCCCCT", "Not fulfilled"),
    ("CAAGATCTCCT", "Fulfilled"),
    ("GAAGACCTCCT", "Fulfilled"),
    ("CAAAGTTTCCT", "Not fulfilled"),
    ("CGGATCTTCCT", "Fulfilled"),
    ("AAAGGAGTCCC", "Not fulfilled"),
    ("CAAAATATCCC", "Not fulfilled"),
    ("CGAAGCGCCCC", "Not fulfilled"),
    ("GGGAACCCCCC", "Not fulfilled"),
    ("GAGAGCCCCCC", "Not fulfilled"),
    ("AAATGCTTCCC", "Not fulfilled"),
    ("CGGAAATTCCC", "Not fulfilled"),
    ("GGAAGCTTCCT", "Fulfilled"),
    ("CAGTTGACCCT", "Fulfilled"),
    ("AGAATGACCCC", "Fulfilled"),
    ("CGGGAACCCCC", "Not fulfilled"),
    ("GAAATCGCCCC", "Not fulfilled"),
    ("AAATGCCCCCC", "Not fulfilled"),
    ("GAAATAGTCCC", "Not fulfilled"),
    ("CGGTTCATCCT", "Fulfilled"),
    ("AGAATGTTCCT", "Fulfilled"),
    ("GGGGTTGTCCC", "Not fulfilled"),
    ("AGAATGCTCCC", "Fulfilled"),
    ("GAAAGTGTCCT", "Fulfilled"),
    ("CGGTACTCCCT", "Not fulfilled"),
    ("CAGGGGACCCT", "Not fulfilled"),
    ("CGGAGCGCCCT", "Fulfilled"),
    ("GGAGGACCCCT", "Not fulfilled"),
    ("CAGTGTTTCCT", "Not fulfilled"),
    ("AAGAGCATCCT", "Fulfilled"),
]

---

STUDY_SYSTEM: p50p50 homodimer (Homo sapiens, UniProt P19838 7-356)
Sequence (P19838 7-356): as the sequence (P19838 7-356, chain 2 of 2) above
METHOD_NOTES: protein binding microarray; high values mean tight binding
CONDITION_INFO: dsDNA, one strand shown
ENDPOINT: binding signal (z-score)

# SEQUENCE, ENDPOINT, UNITS_LABEL, TEST_VALUE
data = [
    ("AGAATTGCCCT", "binding signal", "z-score", -0.747),
    ("GGGTTCGTCCC", "binding signal", "z-score", 0.238),
    ("CAGATCCCCCT", "binding signal", "z-score", 1.6),
    ("GGATTAGCCCC", "binding signal", "z-score", 0.405),
    ("GAGGAGCTCCT", "binding signal", "z-score", -1.81),
    ("CAGGTTACCCC", "binding signal", "z-score", 0.178),
    ("CAATGTTCCCT", "binding signal", "z-score", 0.396),
    ("GGATAATCCCC", "binding signal", "z-score", 1.26),
    ("CGAGGGTTCCC", "binding signal", "z-score", -0.573),
    ("CGGTTCCCCCC", "binding signal", "z-score", 1.52),
    ("AGAAAACTCCC", "binding signal", "z-score", 1.03),
    ("AAGGTCCCCCC", "binding signal", "z-score", 1.12),
    ("CAAAGAACCCT", "binding signal", "z-score", -0.409),
    ("CGAGTCTTCCC", "binding signal", "z-score", -0.565),
    ("AAAAGGTCCCC", "binding signal", "z-score", 0.934),
    ("AAAGGTCCCCT", "binding signal", "z-score", 1.09),
    ("CGGATGGCCCT", "binding signal", "z-score", -1.09),
    ("CGAATGATCCT", "binding signal", "z-score", -1.92),
    ("AGGTAGCTCCT", "binding signal", "z-score", -0.916),
    ("CAAGAAACCCT", "binding signal", "z-score", -0.321),
    ("GAGTGACTCCC", "binding signal", "z-score", -0.849),
    ("AAGATGGCCCT", "binding signal", "z-score", -0.78),
    ("CGAATTCTCCT", "binding signal", "z-score", -1.08),
    ("CGAGAGCCCCT", "binding signal", "z-score", 0.741),
    ("AAAGTTGCCCC", "binding signal", "z-score", 0.606),
    ("AGGGGAGTCCT", "binding signal", "z-score", 0.962),
    ("CAAGTTGTCCC", "binding signal", "z-score", 0.614),
    ("GGGTGTGTCCC", "binding signal", "z-score", 0.331),
    ("CAAAGGGTCCC", "binding signal", "z-score", -0.186),
    ("GGGTTGACCCT", "binding signal", "z-score", -0.785),
    ("GAAAGTTCCCT", "binding signal", "z-score", 1.15),
    ("GAGAAAGTCCC", "binding signal", "z-score", 1.14),
    ("CAGTTCTTCCC", "binding signal", "z-score", -0.0833),
    ("CAGAGATTCCT", "binding signal", "z-score", -1.43),
    ("CGGGTTACCCT", "binding signal", "z-score", -0.264),
    ("AAATTACTCCC", "binding signal", "z-score", 0.204),
    ("AGGTTTGTCCC", "binding signal", "z-score", 0.56),
    ("CGGGACCCCCT", "binding signal", "z-score", 1.2),
    ("AGAGGTCTCCC", "binding signal", "z-score", -0.751),
    ("AGAAGGGTCCC", "binding signal", "z-score", -0.215),
    ("CGGTACATCCC", "binding signal", "z-score", 0.342),
    ("GAGGAAATCCT", "binding signal", "z-score", -0.905),
    ("GGGTTTGCCCT", "binding signal", "z-score", -0.184),
    ("CAGTTGACCCT", "binding signal", "z-score", -0.922),
    ("CGGAAATCCCT", "binding signal", "z-score", 1.09),
    ("AAGTAAGTCCC", "binding signal", "z-score", 1.02),
    ("AAGTACATCCC", "binding signal", "z-score", -0.756),
    ("AAAAAGCTCCT", "binding signal", "z-score", -1.47),
    ("CGGTGGTTCCT", "binding signal", "z-score", 0.731),
    ("AAAGGAGTCCC", "binding signal", "z-score", 0.939),
    ("AGGTTCATCCC", "binding signal", "z-score", -0.302),
    ("AAGATTCTCCT", "binding signal", "z-score", -1.03),
    ("AAGGTGTCCCT", "binding signal", "z-score", 0.811),
    ("GAAATCGCCCC", "binding signal", "z-score", 0.544),
    ("GAGTGGATCCT", "binding signal", "z-score", -1.11),
    ("AAAAGCACCCC", "binding signal", "z-score", 0.833),
    ("AAGAGAGTCCT", "binding signal", "z-score", -0.892),
    ("GGAATGGTCCT", "binding signal", "z-score", -1.37),
    ("GAGAGCGCCCT", "binding signal", "z-score", -1.91),
    ("CAAATGCCCCT", "binding signal", "z-score", 1.15),
    ("CAAATAATCCT", "binding signal", "z-score", -0.88),
    ("GGAAGCTTCCT", "binding signal", "z-score", -1.04),
    ("CGGGGCACCCC", "binding signal", "z-score", 0.323),
    ("GAAGTACCCCC", "binding signal", "z-score", 1.25),
    ("AGGTAGGTCCC", "binding signal", "z-score", -0.0842),
    ("GAGATCCTCCC", "binding signal", "z-score", -0.604),
    ("CGAGTTATCCT", "binding signal", "z-score", -1.24),
    ("GGATTCATCCT", "binding signal", "z-score", -2.29),
    ("CGAGGAATCCT", "binding signal", "z-score", -1.18),
    ("AAAGAAGTCCT", "binding signal", "z-score", -0.972),
    ("GGAGTCGTCCT", "binding signal", "z-score", -1.28),
    ("CGGAGCGCCCT", "binding signal", "z-score", -1.84),
    ("AAGTGGCCCCC", "binding signal", "z-score", 0.242),
    ("GGAAATCCCCT", "binding signal", "z-score", 1.5),
    ("GGGGTCTCCCT", "binding signal", "z-score", 0.727),
    ("GAATTCACCCC", "binding signal", "z-score", 0.437),
    ("CAGAATCTCCC", "binding signal", "z-score", 0.713),
    ("CGAATATTCCC", "binding signal", "z-score", 0.695),
    ("GGAAATTTCCT", "binding signal", "z-score", 0.318),
    ("AGAGAGATCCC", "binding signal", "z-score", -0.511),
    ("AAAATGATCCC", "binding signal", "z-score", -0.272),
    ("AGGTGGTCCCT", "binding signal", "z-score", 0.913),
    ("AGAAGATTCCT", "binding signal", "z-score", -1.1),
    ("CGAGACGCCCC", "binding signal", "z-score", 0.148),
    ("GGATATGCCCT", "binding signal", "z-score", -1.18),
]
